- Test system: MCF7 breast
- method-summary: NCI-60 one-dose screen, 48 h (100 = growth as untreated, 0 = no growth, -100 = all killed)
- assay-setup: 10 µM unless noted
The panel holds about 83,000 compounds, 20% with a hit somewhere; the sample as a whole holds those more often.
Give growth for every item shown.
Answers are plain numbers, in %.

These recorded examples may help you get a feel for the data.
Prompt: What value of growth has been reported for the following compound? O=C1Nc2ccccc2Oc2ccc(S(=O)(=O)CC3CO3)cc21 (centres undefined)
Completion: 18.1

Prompt: Look at this compound and give its reported growth. Cc1nc2cnc(N)c(C#Cc3cncc(C(=O)Nc4ccc(Cl)c(C(F)(F)F)c4)c3)c2nc1C
Completion: -67.5

Prompt: Given C=C1CC[C@H]2[C@@](C)(CCC3OC(c4ccc(OCc5cn(C6CC(OC(C)=O)C(OC(C)=O)C(COC(C)=O)O6)nn5)cc4)OC[C@]32C)[C@@H]1/C=C/C1=CCOC1=O (some centres undefined) , state its recorded growth.
Completion: 44.4

Prompt: Please give the measured growth for this compound: CN(C)CCCOc1c2ccc(Cl)cc2nc2c1oc1ccccc12
Completion: -18.6

Prompt: Entry Cc1sc2c(c1C)c(=O)nc1c(-c3nc(-c4ccc(F)cc4)no3)n[nH]n12 has what growth?
Completion: 89.7

Prompt: # input compound: CSCCC(C(=O)O)N1C(=O)/C(=C/c2ccc(O)c(O)c2)SC1=S (centres undefined) ; wanted: its growth
Completion: 93.4

Please state growth for every compound in the list that follows.
1. N/C(=N\c1nc2c(Cl)cc(Cl)cc2s1)C(Cl)(Cl)Cl
2. CNC(=O)c1cc(-c2ccc(NC(=O)Nc3ccc(N4CCN(C)CC4)c(C(F)(F)F)c3)cc2)nc2cccnc12
3. C[C@@H](Nc1c(C#N)cnc2ccc(-c3cnc(N)nc3)cc12)c1ccccc1
4. COc1cc(-c2nc3ccc(-c4nnc(SCC(=O)Nc5ccc(C(=O)/C=C/c6ccc(Cl)cc6)cc5)o4)cc3[nH]2)cc(OC)c1OC
5. N=C1CC(=O)NN1C(=O)CSc1nc2sc3c(c2c(=O)n1-c1ccc(Cl)cc1)CCCC3
6. CCN1CCN(/C(=N\c2sc(-c3ccccc3)nc2-c2ccccc2)c2ccccc2)CC1
7. COc1cc(/C=C/C(=O)c2ccc(C(F)(F)F)cc2)ccc1Oc1nc(NCCO)nc(N2CCOCC2)n1
8. Cc1cc(C(=O)Nc2sc3c(c2C(N)=O)CCC(=O)C3)ccc1OCCN1CCCCC1

Completion:
1. 24.8
2. -100
3. 10.9
4. 59.1
5. 91.8
6. 67.3
7. 17
8. 95.3
